target: T1, BSA (blocking agent) (UniProt P02769 25-607); test: ELISA on uncoated plates blocked with PBS 3% BSA, periplasmic preparation
T1 construct: Specificity control of the ELISA
T1 sequence (P02769 25-607 limits assumed): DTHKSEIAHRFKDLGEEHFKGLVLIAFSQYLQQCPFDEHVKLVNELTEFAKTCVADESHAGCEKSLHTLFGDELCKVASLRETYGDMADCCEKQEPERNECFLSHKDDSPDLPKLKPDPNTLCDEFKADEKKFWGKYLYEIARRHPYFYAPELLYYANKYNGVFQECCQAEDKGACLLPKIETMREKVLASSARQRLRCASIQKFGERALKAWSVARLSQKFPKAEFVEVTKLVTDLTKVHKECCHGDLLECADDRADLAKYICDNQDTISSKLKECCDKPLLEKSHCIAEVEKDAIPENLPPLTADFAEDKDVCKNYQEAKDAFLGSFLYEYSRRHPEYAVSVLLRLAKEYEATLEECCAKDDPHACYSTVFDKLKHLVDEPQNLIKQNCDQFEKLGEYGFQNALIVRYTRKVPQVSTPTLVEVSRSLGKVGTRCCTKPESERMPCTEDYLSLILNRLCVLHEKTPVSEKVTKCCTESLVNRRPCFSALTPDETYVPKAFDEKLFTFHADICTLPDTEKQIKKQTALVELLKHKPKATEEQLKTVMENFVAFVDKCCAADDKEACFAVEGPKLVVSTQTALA

binder	binding result
human anti-human CD3 scFv 3-271 (FLAG-tagged) (scFv, VH-(G4S1)3-VL scFv from huLIB-STE, tested as crude periplasmic preparation) scFv: ELQLVEWGAGLLKPSETLSLTCAVYGGSFSGYYWSWIRQPPGKGLEWIGEINHSGSTNYNPSLKSRVTISVDTSKNQFSLKLSSVTAADTAVYYCARGPDRMGHGFDIWGQGTMVTVSSGGGGSGGGGSGGGGSELQMTQSPSSLSASVGDRVTITCRASQSISSYLNWYQQKSGKAPKLLIYAASSLQSGVPSRFSGSGSGTDFTLTISSLQPEDFATYYCQQSYSSPWTFGQGTKVEIKTGDYKDDDDK	no binding
human anti-human CD3 scFv 3-148 (FLAG-tagged) (scFv, VH-(G4S1)3-VL scFv from huLIB-ST, tested as crude periplasmic preparation) scFv: ELQLVESGPGLVKPSGTLSLTCAVSGGSISSRNWWSWVRQPPGKGLEWIGDIYHSGSTNYNPSLKSRVTISVDKSKNQFSLKLSSVTAADTAVYYCASGYTSCRDAFDIWGQGTMVTVSSGGGGSGGGGSGGGGSELVMTQSPSSLSASVGDRVTITCRASQGIGNYLAWYQQKPGQPPKMLIYWASIRESGVPDRFSGSGSGTDFTLTISSLQAEDVAVYYCQQYYSNPQTFGQGTKVEIKTGDYKDDDDK	no binding
human anti-human CD3 scFv 4-10 (FLAG-tagged) (scFv, VH-(G4S1)3-VL scFv from huLIB-ST, tested as crude periplasmic preparation; Flag-tag put at the C-terminus because it replaces the vector's His6-tag; also called construct 4-10) scFv: ELQLVESGGGLVQPGGSLRLSCAASGFTFSSYAMGWVRQAPGKGLEWVSAVSGSGGSTYYADSVKGRFTISRDNSKNTLYLQMNSLRAEDTAVYYCAKAKFLGHYYGMDVWGQGTTVTVSSGGGGSGGGGSGGGGSELQMTQSPSSLSASVGDRVTITCRASQSISSYLNWYQQKPGKAPKLLIYAASSLQSGVPSRFSGSGSGTEFTLTISSLQPEDFATYYCLQHNAYPYTFGQGTKVEIKTGDYKDDDDK	no binding

// provenance: patent US8784821
